// values below are reported cleaved RNA product abundance
# Test system: Bacillus subtilis
# Assay Overview: cleaved RNA product abundance (RNA/gDNA barcode ratio) relative to median wild-type variant (ratio to wild type); higher = more accumulation of the downstream cleavage product
# Condition Notes: experiment (reporter, strain, medium): exp 2b: truncated aprE reporter, strain BJT200; cleavage site: cggR-gapA (positions -7 to +36 mutated)
Measure Name: cleaved RNA product abundance

{"Residue Sequence": "ACAGACGAAGGAGCCGCAATGAAGTTATTAAGGAATGAATAATCCCTCAATATAAATATCTCTCACTTATTTAAA", "Measure Name": "cleaved RNA product abundance", "Reported Measurement": 0.131}
{"Residue Sequence": "ACAGACGAAGGAGCCGCAAAGAAGTTATTAAGGGATGAATAATCCCTCAACATAAAAATCTCTCACTTATTTAAA", "Measure Name": "cleaved RNA product abundance", "Reported Measurement": 0.242}
{"Residue Sequence": "ACAGACGAAGGAGCCGCAAAGAAGTTCTGAAGGGATGAATAATCCCTCAATATAAATATCTCTCACTTATTTAAA", "Measure Name": "cleaved RNA product abundance", "Reported Measurement": 0.193}
{"Residue Sequence": "ACAGACGAAGGAGCCGCAAATAAGTTATTAAGGGATGAATAATCACTCAATATAAATATCTCTCACTTATTTAAA", "Measure Name": "cleaved RNA product abundance", "Reported Measurement": 0.118}

###

// values below are reported cleaved RNA product abundance
# System: Bacillus subtilis
# Assay Overview: cleaved RNA product abundance (RNA/gDNA barcode ratio) relative to median wild-type variant (ratio to wild type); higher = more accumulation of the downstream cleavage product
# Condition Notes: experiment (reporter, strain, medium): exp 8a: truncated aprE reporter, strain BJT201 with 2% xylose (RNase J1 expressed); cleavage site: glnRA (positions -5 to +31 mutated)

{"Residue Sequence": "CGACATGTCCCGCTTCTTTCATTATTCCGTTAGCAACTGTTTTGCAATATACATTTACCTTTTAAGAGGAGGAAT", "Assayed Target": "Bacillus subtilis", "cleaved RNA product abundance": 0.626}
{"Residue Sequence": "CGACATGTCCCGCTTCTTTCATTAATCCGTTAGCAACTGTTTTGCTATAAACCTTTACCTTTTAAGAGGAGGAAT", "Assayed Target": "Bacillus subtilis", "cleaved RNA product abundance": 0.163}
{"Residue Sequence": "CGACATGTCCCGCTTCTTTCATTAATCCGTAAGCAACTGTTTTGTTATATACATTTACCTTTTAAGAGGAGGAAT", "Assayed Target": "Bacillus subtilis", "cleaved RNA product abundance": 0.391}
{"Residue Sequence": "CGACATGTCCCGCTTCTTTCATTAATCCGTTAGTATCTGTTTTGCTATATACATTTACCTTTTAAGAGGAGGAAT", "Assayed Target": "Bacillus subtilis", "cleaved RNA product abundance": 0.422}
{"Residue Sequence": "CGACATGTCCCGCTTCTTTCATTAATCCGTTAGCAACTGTTTTTATATATACATTTACCTTTTAAGAGGAGGAAT", "Assayed Target": "Bacillus subtilis", "cleaved RNA product abundance": 0.669}
{"Residue Sequence": "CGACATGTCCCGCTTCTTTCATTACTCCGTTAGAAACTGTTTTGCTATATACATTTACCTTTTAAGAGGAGGAAT", "Assayed Target": "Bacillus subtilis", "cleaved RNA product abundance": 0.478}
{"Residue Sequence": "CGACATGTCCCGCTTCTTTCATTAATACGTTAGCAATAGTTTTGCTATATACATTTACCTTTTAAGAGGAGGAAT", "Assayed Target": "Bacillus subtilis", "cleaved RNA product abundance": 0.874}
{"Residue Sequence": "CGACATGTCCCGCTTCTTTCATTAATCCGTTACCAACTGTTTTTCTATATACATTTACCTTTTAAGAGGAGGAAT", "Assayed Target": "Bacillus subtilis", "cleaved RNA product abundance": 0.234}
{"Residue Sequence": "CGACATGTCCCGCTTCTTTCATTAATCCGTTAGCAACTGTTTTGTTATATATATTTACCTTTTAAGAGGAGGAAT", "Assayed Target": "Bacillus subtilis", "cleaved RNA product abundance": 0.298}
{"Residue Sequence": "CGACATGTCCCGCTTCTTTCATTAATCCGTTAGCAACTGTTTGACTATATACATTTACCTTTTAAGAGGAGGAAT", "Assayed Target": "Bacillus subtilis", "cleaved RNA product abundance": 0.605}
{"Residue Sequence": "CGACATGTCCCGCTTCTTTCATTAATCCGTTATCAACTGTTTTGTTATATACATTTACCTTTTAAGAGGAGGAAT", "Assayed Target": "Bacillus subtilis", "cleaved RNA product abundance": 0.272}
{"Residue Sequence": "CGACATGTCCCGCTTCTTTCATTATTCCGTTAGCAACTGTTTTGCTATATACATTCACCTTTTAAGAGGAGGAAT", "Assayed Target": "Bacillus subtilis", "cleaved RNA product abundance": 1.3}
{"Residue Sequence": "CGACATGTCCCGCTTCTTTCATTAATCCGTTAGCCACTATTTTGCTATATACATTTACCTTTTAAGAGGAGGAAT", "Assayed Target": "Bacillus subtilis", "cleaved RNA product abundance": 0.358}
{"Residue Sequence": "CGACATGTCCCGCTTCTTTCATTAATCCGTTAGCAAGTGTTTTGCTAAATACATTTACCTTTTAAGAGGAGGAAT", "Assayed Target": "Bacillus subtilis", "cleaved RNA product abundance": 0.596}
{"Residue Sequence": "CGACATGTCCCGCTTCTTTCATTAATCCGTTAGCAACTGTTTTCCTATATACATTTACATTTTAAGAGGAGGAAT", "Assayed Target": "Bacillus subtilis", "cleaved RNA product abundance": 0.549}
{"Residue Sequence": "CGACATGTCCCGCTTCTTTCATTAATCCATTAGCAACTGTTTTGCTATAGACATTTACCTTTTAAGAGGAGGAAT", "Assayed Target": "Bacillus subtilis", "cleaved RNA product abundance": 0.532}
{"Residue Sequence": "CGACATGTCCCGCTTCTTTCATTAATCCGTTAGCAATTGTTTTGTTATATACATTTACCTTTTAAGAGGAGGAAT", "Assayed Target": "Bacillus subtilis", "cleaved RNA product abundance": 0.425}
{"Residue Sequence": "CGACATGTCCCGCTTCTTTCATTAAACCGTTAGCAACTGTTTTGCTATATACATATACCTTTTAAGAGGAGGAAT", "Assayed Target": "Bacillus subtilis", "cleaved RNA product abundance": 0.825}
{"Residue Sequence": "CGACATGTCCCGCTTCTTTCATTAATCCGTTAGCAACTGTTTTTCTATATACATTTACGTTTTAAGAGGAGGAAT", "Assayed Target": "Bacillus subtilis", "cleaved RNA product abundance": 0.305}
{"Residue Sequence": "CGACATGTCCCGCTTCTTTCATTAATGCGATAGCAACTGTTTTGCTATATACATTTACCTTTTAAGAGGAGGAAT", "Assayed Target": "Bacillus subtilis", "cleaved RNA product abundance": 0.395}
{"Residue Sequence": "CGACATGTCCCGCTTCTTTCATTAATCCGCAGGCAACTGTTTTTCTAAATACAAATACCTTTTAAGAGGAGGAAT", "Assayed Target": "Bacillus subtilis", "cleaved RNA product abundance": 0.213}
{"Residue Sequence": "CGACATGTCCCGCTTCTTTCATTATTCCGTGAGCAACTGTTTTGCTATATACATTTACCTTTTAAGAGGAGGAAT", "Assayed Target": "Bacillus subtilis", "cleaved RNA product abundance": 0.62}
{"Residue Sequence": "CGACATGTCCCGCTTCTTTCATTAAACCGTTAGCAACTGTCTTGCTATATACATTTACCTTTTAAGAGGAGGAAT", "Assayed Target": "Bacillus subtilis", "cleaved RNA product abundance": 0.759}
{"Residue Sequence": "CGACATGTCCCGCTTCTTTCATTATTCCGTTAGCAACTATTTTTCTATATACATTTACCTTTTAAGAGGAGGAAT", "Assayed Target": "Bacillus subtilis", "cleaved RNA product abundance": 0.956}
{"Residue Sequence": "CGACATGTCCCGCTTCTTTCATTATTACGTTAGCAACCGTTTTGCTATATACATTTACCTTTTAAGAGGAGGAAT", "Assayed Target": "Bacillus subtilis", "cleaved RNA product abundance": 1.06}
{"Residue Sequence": "CGACATGTCCCGCTTCTTTCATTAATCCTTTAGCAACAGTTTTGCTATATACATTTACCTTTTAAGAGGAGGAAT", "Assayed Target": "Bacillus subtilis", "cleaved RNA product abundance": 0.115}
{"Residue Sequence": "CGACATGTCCCGCTTCTTTCATTAATCCGTAAGCAACTGTTTTGCTATATACATTTAACATTTAAGAGGAGGAAT", "Assayed Target": "Bacillus subtilis", "cleaved RNA product abundance": 0.275}
{"Residue Sequence": "CGACATGTCCCGCTTCTTTCATTAAACCGTTAGCAACTGTTTAGCTATATACATTTACCTTTTAAGAGGAGGAAT", "Assayed Target": "Bacillus subtilis", "cleaved RNA product abundance": 0.248}
{"Residue Sequence": "CGACATGTCCCGCTTCTTTCATTACTCCGTTAGCAACTGTCTTGCTATATACATTTACCTTTTAAGAGGAGGAAT", "Assayed Target": "Bacillus subtilis", "cleaved RNA product abundance": 0.946}
{"Residue Sequence": "CGACATGTCCCGCTTCTTTCATTAATCCGTTAGCAACTGTTTTGCTATAAACATTTACCTTTTAAGAGGAGGAAT", "Assayed Target": "Bacillus subtilis", "cleaved RNA product abundance": 0.603}

Cited source for all entries: the supplement of paper PMC11780869
